target: P2X3 receptor; test: Antagonist activity against rat or human P2X3 receptor expressed in HEK293/1321N1 cells assessed as inhibition of alpha,beta-meATP/ATP-induced calcium influx by Fluo-4 dye based FLIPR assay
pIC50: −log10 of the molar value.
Listed molecules paired with reported pIC50

molecule	pIC50
Cc1ccc(N2CCc3ncnc(NCc4ccc5ocnc5c4)c3C2)c(C#N)c1	7.82
Cc1ccc(N2CCc3ncnc(NC(CCO)c4ccc(C(F)(F)F)nc4)c3C2)c(C#N)c1 (stereo not given)	7.26
Cc1ccc(N2CCc3ncnc(NCc4ncc(Cl)cc4Cl)c3C2)c(C#N)c1	7.39
Cc1ccc(N2CCc3ncnc(NCc4ccc(Cl)c(-n5cnnc5)c4)c3C2)c(C#N)c1	7.51
N#Cc1cc(Br)ccc1N1CCc2ncnc(NCc3ccc(C(F)(F)F)nc3)c2C1	7.10
